- target: UniProt P34972
- protocol-summary: Agonism of CB2 by detection of cAMP using HTRF
- Type: cell-based
- test-parameters: CHO cells stably expressing CB2 receptor, cAMP HTRF, forskolin-stimulated; average if tested more than once; read-out: hCB2 CHO EC50
assay-endpoint: pEC50
As a rule, pEC50 stands for the negative log10 of the concentration, concentration in M.

Q: Fill blank: measured pEC50 of the compound CC(C)(C)c1cnc(-c2nn(-c3cnccn3)c3c2CC2CCC3O2)s1 (stereo not drawn) is ____.
A: 9.62

Q: And the next one, CC(C)(CO)NC(=O)c1nn(-c2cnccn2)c2c1CC1CCC2O1 (stereo not drawn) ?
A: 8.15

Q: And the next one, CC(C)(C)NC(=O)c1c2c(nn1-c1ccc(F)cc1F)C1CCC(C2)O1 (stereo not drawn) ?
A: 5.53

Q: And the next one, O=C(NC12CCC(CC1)CC2)c1nn(-c2cnccn2)c2c1CC1CCC2O1 (stereo not drawn) ?
A: 10.22

Q: And the next one, CCC(C)(C)c1noc(-c2nn(-c3c[n+]([O-])ccn3)c3c2CC2CCC3O2)n1 (stereo not drawn) ?
A: 10.70

Q: And the next one, CC(C)(C)c1noc(-c2nn(-c3cnccn3)c3c2CC2CCC3O2)n1 (stereo not drawn) ?
A: 9.66

Q: And the next one, CC(C)(C)c1csc(-c2nn(-c3c[n+]([O-])ccn3)c3c2CC2CCC3O2)n1 (stereo not drawn) ?
A: 7.33

Q: And the next one, CC(C)(C)c1nnc(-c2nn(-c3c[n+]([O-])ccn3)c3c2CC2CCC3O2)o1 (stereo not drawn) ?
A: 9.70

Q: And the next one, CC(C)(C)c1cnc(-c2nn(-c3cnccn3)c3c2CC2CCC3O2)o1 (stereo not drawn) ?
A: 9.89

----------
What pEC50 was measured for each of the following?
- target: hCB2 receptor (Homo sapiens, UniProt P34972)
- Sequence (P34972 whole entry): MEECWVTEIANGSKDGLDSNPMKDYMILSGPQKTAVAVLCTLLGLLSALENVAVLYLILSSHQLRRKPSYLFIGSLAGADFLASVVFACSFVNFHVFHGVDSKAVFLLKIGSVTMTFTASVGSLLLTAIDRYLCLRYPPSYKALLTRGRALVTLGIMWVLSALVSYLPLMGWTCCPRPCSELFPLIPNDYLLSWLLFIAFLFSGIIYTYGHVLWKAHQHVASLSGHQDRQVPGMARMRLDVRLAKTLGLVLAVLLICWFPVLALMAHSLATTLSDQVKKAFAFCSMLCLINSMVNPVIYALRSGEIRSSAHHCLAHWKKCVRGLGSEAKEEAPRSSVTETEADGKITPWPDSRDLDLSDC
- protocol-summary: Agonism of CB2 by detection of cAMP using HTRF
- Format: cell-based
- test-parameters: CHO cells stably expressing CB2 receptor, cAMP HTRF, forskolin-stimulated; average if tested more than once; read-out: hCB2 CHO EC50
As a rule, pEC50 stands for the negative log10 of the concentration, concentration in M.

Q: Fill blank: measured pEC50 of the compound CC(C)(C)NC(=O)c1nn(-c2cnccn2)c2c1C1CCC(C2)O1 (centres unmarked) is ____.
A: 7.64

Q: And the next one, CC(C)(C)NC(=O)c1nn(-c2ccc(F)cc2F)c2c1CC1CCC2O1 (centres unmarked) ?
A: 8.92

Q: And the next one, CC(C)(C)c1nc(-c2nn(-c3cnccn3)c3c2CC2CCC3O2)no1 (centres unmarked) ?
A: 9.48

Q: And the next one, CC(C)(CO)NC(=O)c1nn(-c2c[n+]([O-])ccn2)c2c1CC1CCC2O1 (centres unmarked) ?
A: 9.00

Q: And the next one, CC(C)(C)NC(=O)c1c2c(nn1-c1c[n+]([O-])ccn1)CC1CCC2O1 (centres unmarked) ?
A: 5.57

Q: And the next one, `CC(C)(C)[C@@H](CO)NC(=O)c1nn(-c2c[n+]([O-])ccn2)c2c1C[C@@H]1CC[C@H]2O1` ?
A: 9.47

Q: And the next one, CC(C)(C)c1nnc(-c2nn(-c3c[n+]([O-])ccn3)c3c2CC2CCC3O2)s1 (centres unmarked) ?
A: 10.22

Q: And the next one, CC(C)(C)NC(=O)c1c2c(nn1-c1cnccn1)C1CCC(C2)O1 (centres unmarked) ?
A: 5.39

Q: And the next one, CC(C)(C)NC(=O)c1c2c(nn1-c1cnccn1)CC1CCC2O1 (centres unmarked) ?
A: 5.78

Q: And the next one, `O=C(NC[C@]12C[C@@H]3C[C@@H](C[C@@H](C3)C1)C2)c1nn(-c2ccc(F)cc2F)c2c1CC1CCC2O1` ?
A: 7.99

Q: And the next one, CC(C)(C)c1nc(-c2nn(-c3c[n+]([O-])ccn3)c3c2CC2CCC3O2)no1 (centres unmarked) ?
A: 10.00

Q: And the next one, CC(C)(C)c1noc(-c2nn(-c3c[n+]([O-])ccn3)c3c2CC2CCC3O2)n1 (centres unmarked) ?
A: 9.89

Q: And the next one, O=C(NC12CCC(CC1)CC2)c1nn(-c2c[n+]([O-])ccn2)c2c1CC1CCC2O1 (centres unmarked) ?
A: 10.70

Q: And the next one, CC(C)(C)c1nnc(-c2nn(-c3c[n+]([O-])ccn3)c3c2CC2CCC3O2)[s+]1[O-] (centres unmarked) ?
A: 9.13

Q: And the next one, CCC(C)(C)c1noc(-c2nn(-c3cnccn3)c3c2CC2CCC3O2)n1 (centres unmarked) ?
A: 10.40

Q: And the next one, O=C(NC12CC3CC(CC1C3)C2)c1nn(-c2cnccn2)c2c1CC1CCC2O1 (centres unmarked) ?
A: 10.70

Q: And the next one, `CC(C)(C)[C@@H](CO)NC(=O)c1nn(-c2cnccn2)c2c1C[C@@H]1CC[C@H]2O1` ?
A: 9.25
